target: δ opioid receptor (UniProt P41143); experiment: radioligand binding
Starred links: 1 amine or outer side, 2 acyl side, 3 side chain; linkers in the order of their positions; H or OH if unused. Non-standard residues stand in square brackets, D forms with d. No end group written: not given here. Phe(2-(3-thienyl)) = O=C([C@H](Cc1ccccc1-c1ccsc1)N[*:1])[*:2]; Dmt = Cc1cc(O)cc(C)c1C[C@H](N)C(=O)O
In this section we review reported pIC50 values for a set of binders.
Bear in mind: pIC50 is minus log10 of a mol/L concentration; give just that figure.

What measured pIC50 goes with [Dmt][dR][Phe(2-(3-thienyl))]G-NH2 (N-terminus assumed; SMILES Cc1cc(O)cc(C)c1C[C@H](N)C(=O)N[C@H](CCCNC(=N)N)C(=O)N[C@@H](Cc1ccccc1-c1ccsc1)C(=O)NCC(N)=O) [Dmt-D-Arg-Phe(2-(3-thienyl))-Gly-NH2] ?
6.20

Reference for the values: paper PMC6005765
